In this section we review reported MIC90 values for a set of compounds.
Tested on: Mycobacterium tuberculosis
Assay: MMV: CRC and MIC90 against Mtb (replicating)
Format: functional
metric name: MIC90 (µM)

* CCCCCCn1c(=N)n(CC(O)COc2cccc(C)c2)c2ccccc21 (stereo unspecified) | 9.69
* Oc1ccc2ccccc2c1CNc1nc2ccccc2[nH]1 | 74.1
* O=C(NC1CCN(Cc2ccccc2)CC1)c1cc(-c2ccncc2)nc2ccc(Cl)cc12 | 32.5
* CCOC(=O)c1cnc2ccc(OC)cc2c1Nc1ccc(N2CCN(C)CC2)cc1 | 35.9
* Cc1cc(Nc2ccc(OCc3ccccc3)cc2)nc2cc(O)ccc12 | 19.9

###

System: Mycobacterium tuberculosis
Test: MMV: Screen against Mtb, single point, non replicating, at 25uM
Type: functional
Where inhibition at 25 µM equals or exceeds 10%, the correct label is criterion met; where it does not, the label is criterion not met.

- CCOc1cc(Br)c(C(C)NC(=O)c2cccc(OC)c2)cc1OCC (stereo not drawn): criterion not met
- CCCc1cc(O)c2c3c(c(=O)oc2c1)CN(C)CC3: criterion met
- Cc1ccc2c(C)nc(Nc3nc(C)cc(-c4ccccc4)n3)nc2c1: criterion met
- Cc1ccc(-c2cc(C(=O)Nc3ccc(S(=O)(=O)N4CCCCC4)cc3)[nH]n2)c(O)c1: criterion not met
- CCCc1c(C)nc2ccc(Br)cc2c1O: criterion met
- COc1ccc(C=C2SC(Nc3ccc(F)cc3)=NC2=O)c(OC)c1: criterion not met
- Cc1cccc(Nc2nc(N)c3ccccc3n2)c1: criterion not met
- CCCN(CCC)CC(O)COc1ccccc1C(=O)Nc1ccccc1 (stereo not drawn): criterion met
- O=C(Nc1ccc(CN2CCOCC2)cc1)c1ccc(-c2ccc(Br)cc2)o1: criterion met
- COc1ccc(C2=C(c3ccc(OC)cc3)C3(c4ccccc4)C(=O)C2(c2ccccc2)C2C(=O)N(c4ccc(C)cc4)C(=O)C23)cc1 (stereo not drawn): criterion met
- CCN1CCN(c2cc(C)c3cc(NC(=O)c4ccc(OC)c(OC)c4)ccc3n2)CC1: criterion met
- CCOc1ccc(C2N(C)c3ccccc3N2C)cc1: criterion met
- CCOc1ccccc1CNC(=O)C1c2ccccc2C(=O)N(CC(C)C)C1c1cccs1 (stereo not drawn): criterion met
- COc1cc(SC)ccc1C(=O)N1CCCC(C)C1 (stereo not drawn): criterion not met
- OC(CNC1CCCCC1)Cn1c2ccccc2c2ccccc21 (stereo not drawn): criterion met
- O=C(CSc1ccc2nnc(-c3cccc(F)c3)n2n1)Nc1ccc2c(c1)OCO2: criterion met
- Cc1cc(NC(=O)c2cccc(C(F)(F)F)c2)n(-c2nc(-c3ccc4c(c3)OCO4)cs2)n1: criterion not met
- COc1ccc(C)c2sc(N(Cc3cccnc3)C(=O)c3ccc(C#N)cc3)nc12: criterion met
- OC1CCCCC1C1(NC(=S)Nc2ccccc2)CCCCC1 (stereo not drawn): criterion met
- COc1cc2c(cc1OC)C1=NNC(=O)C1=NC(C)(C)C2: criterion met
- CCCCNCC(O)(c1ccc(Cl)cc1)c1ccc(Cl)cc1: criterion not met
- COc1ccc(-c2nc3cc(Cc4ccc5[nH]c(-c6ccc(OC)cc6)nc5c4)ccc3[nH]2)cc1: criterion met
- CN1CCN(c2c3c(c(C#N)c4nc5ccccc5n24)CCC3)CC1: criterion not met
- COc1ccc(C(=O)C2CC2c2ccc(Cl)cc2)cc1 (stereo not drawn): criterion not met
- CC(C)(C)C(=O)Nc1ccc(C(=O)Nc2cccc(-c3nc4ccccc4[nH]3)c2)cc1: criterion not met
- O=C1c2ccc3c4c(ccc(c24)C(=O)N1CCCCO)C(=O)N(CCCCO)C3=O: criterion met
- COc1ccc(CCNC(=O)c2cc(S(=O)(=O)N3CC(C)CC(C)C3)ccc2Sc2ccc(F)cc2)cc1OC (stereo not drawn): criterion met
- Cc1ccc(Nc2nc(N)c3ccccc3n2)cc1Cl: criterion not met
- CCOc1c(Cl)cc(CNC(C)C(O)c2ccccc2)cc1OC (stereo not drawn): criterion met
- CC(C)(C)CC(C)(C)NCC(O)COc1ccc2c(c1)CCC2 (stereo not drawn): criterion not met
- COc1cc(CNCCc2ccc(Cl)cc2)cc(OC)c1O: criterion met
- CCOc1ccc(-c2nc(NC(=O)c3cccc(S(C)(=O)=O)c3)sc2C)cc1: criterion met
- CCN(CC)CCCNc1ccnc2cc3ccccc3cc12: criterion met
- COc1ccc(Br)cc1C1Nc2ccc3ccccc3c2C2=C1C(=O)CC(c1ccccc1)C2 (stereo not drawn): criterion met
- COCCN(C(=O)Cc1cccs1)C(C(=O)NCc1ccc(OC)cc1)c1ccc(C(C)C)cc1 (stereo not drawn): criterion met
- COc1cc(OC)c(N(C)C(=O)c2cc3c(s2)-c2ccccc2S(=O)(=O)C3)cc1Cl: criterion not met
- COc1nc(Nc2ccc(C(C)C)cc2)nc(OC)n1: criterion not met
- COc1cc(C(=O)Nc2nc3c(cc4c5c(cccc53)CC4)s2)cc(OC)c1OC: criterion met
- COc1ccc(-c2nc(NC(=O)CS(=O)(=O)c3ccc(F)cc3)sc2C)cc1: criterion met
- O=C(CCc1ccccc1)c1ccccc1OCC(O)CN1CCCCC1 (stereo not drawn): criterion not met
- COc1ccc(C(=O)NC(c2ccc(Cl)cc2Cl)c2cc(Cl)c3cccnc3c2O)cc1 (stereo not drawn): criterion not met
- COc1ccccc1N1C(=N)SC(=Cc2ccc(OCc3ccccc3F)cc2)C1=O: criterion met
- CCOc1ccc2c(c1)CN(Cc1ccc(Cl)cc1)CO2: criterion met
